Listing of recorded Percent Inhibition by entry.
- Tested on: NCI-H2405
- assay-protocol: Cell panel screen (CellTiter-Glo)
- Type: cell-based, human
- applied-conditions: NCI-H2405 (Lung), 20 micromolar, 72 hrs
endpoint-name: Percent Inhibition (%)

[
  {
    "entry-smiles": "O=C(c1ccc(O)c(O)c1)c1c(O)cc(O)cc1O",
    "assayed-system": "NCI-H2405",
    "endpoint-name": "Percent Inhibition",
    "assay-value": -9
  },
  {
    "entry-smiles": "CC(C)=CCc1c2c(c(O)c3c1O[C@]14C(=C[C@@H]5C[C@H]1C(C)(C)O[C@@]4(C/C=C(\\C)CO)C5=O)C3=O)C=CC(C)(C)O2",
    "assayed-system": "NCI-H2405",
    "endpoint-name": "Percent Inhibition",
    "assay-value": 99
  },
  {
    "entry-smiles": "COc1c(CC=C(C)C)cc2c(=O)c3c(O)cc(O)cc3oc2c1OC",
    "assayed-system": "NCI-H2405",
    "endpoint-name": "Percent Inhibition",
    "assay-value": 25
  }
]
